# system-tested: FGFR1 (Homo sapiens, UniProt P11362)
# Construct: made in house; host or cells: E. coli derived from BL21, infected with T7 phage
# Sequence (P11362 22-822): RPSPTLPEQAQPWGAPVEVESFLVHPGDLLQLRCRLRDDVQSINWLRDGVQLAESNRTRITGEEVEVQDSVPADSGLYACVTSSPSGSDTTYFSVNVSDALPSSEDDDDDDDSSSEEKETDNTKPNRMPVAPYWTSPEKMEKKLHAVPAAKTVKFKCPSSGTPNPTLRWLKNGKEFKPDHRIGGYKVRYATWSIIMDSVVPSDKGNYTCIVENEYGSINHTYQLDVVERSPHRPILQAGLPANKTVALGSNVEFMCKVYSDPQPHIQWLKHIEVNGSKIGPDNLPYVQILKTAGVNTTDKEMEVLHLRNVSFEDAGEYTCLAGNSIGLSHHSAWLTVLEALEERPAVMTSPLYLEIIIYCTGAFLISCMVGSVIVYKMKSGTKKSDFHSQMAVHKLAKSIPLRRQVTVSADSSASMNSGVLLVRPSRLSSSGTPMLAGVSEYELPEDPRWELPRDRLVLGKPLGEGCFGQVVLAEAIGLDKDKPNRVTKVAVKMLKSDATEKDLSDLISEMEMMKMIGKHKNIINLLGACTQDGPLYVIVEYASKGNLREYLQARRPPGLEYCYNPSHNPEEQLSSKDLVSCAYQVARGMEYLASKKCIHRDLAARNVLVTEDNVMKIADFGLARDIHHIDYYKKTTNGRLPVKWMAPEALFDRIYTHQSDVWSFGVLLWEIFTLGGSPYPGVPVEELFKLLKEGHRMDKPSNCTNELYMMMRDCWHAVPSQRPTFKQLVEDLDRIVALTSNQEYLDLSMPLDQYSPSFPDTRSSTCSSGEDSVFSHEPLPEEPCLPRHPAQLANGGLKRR
# assay-procedure: Kinase binding assay (kinase-tagged T7 phage, qPCR), Kd
# measurement-conditions: read-out: FGFR1 (Kd nM)
value-type: Kd

INSERT INTO measurements (molecular_string, value_type, result) VALUES
  ('Cc1cnnc(C)c1[C@@H](C)Oc1ccc2[nH]nc(-c3ccc4c(c3)COC3(CCN(C(C)C)CC3)O4)c2c1', 'Kd', '0.1 to 100 nM');

For each listed entry, give its Kd.
1. C[C@@H](Oc1ccc2[nH]nc(-c3cnc(NC4CCOCC4)c(C#N)c3)c2c1)c1c(Cl)cncc1Cl
2. COc1ncc(-c2n[nH]c3ccc(O[C@H](C)c4c(Cl)cncc4Cl)cc23)cc1NCc1ccnc(C)c1
3. Cc1cc(C#N)cc(-c2n[nH]c3ccc(O[C@H](C)c4c(C)cnnc4C)cc23)c1
4. C[C@@H](Oc1ccc2[nH]nc(-c3ccc(NC(=O)N(C)C)nc3)c2c1)c1c(Cl)cncc1Cl
5. COc1c(F)cc(-c2n[nH]c3ccc(O[C@H](C)c4c(C)cnnc4C)cc23)cc1C#N
6. C[C@@H](Oc1ccc2[nH]nc(-c3cnc(N[C@H]4CCOC4)c(C#N)c3)c2c1)c1c(Cl)cncc1Cl

Key:
["0.1 to 100 nM", "> 1000 nM", "0.1 to 100 nM", "0.1 to 100 nM", "100 to 250 nM", "0.1 to 100 nM"]

====

Kindly state Kd for each of the entries shown.
# system-tested: FGFR2 (Homo sapiens)
# Construct: made in house; host or cells: E. coli derived from BL21, infected with T7 phage
# assay-procedure: Kinase binding assay (kinase-tagged T7 phage, qPCR), Kd
# measurement-conditions: read-out: FGFR2 (Kd nM)

Past entries and their recorded results:
INSERT INTO assay_data (molecular_string, value_type, result) VALUES
  ('CNC(=O)c1ccc(-c2n[nH]c3ccc(O[C@H](C)c4c(Cl)cncc4Cl)cc23)cn1', 'Kd', '0.1 to 100 nM'),
  ('Cc1cc(-c2n[nH]c3ccc(O[C@H](C)c4c(C)cnnc4C)cc23)cc(C#N)c1OC1CCN(C2CCC2)CC1', 'Kd', '0.1 to 100 nM'),
  ('Cc1cc(-c2n[nH]c3ccc(O[C@H](C)c4c(Cl)cncc4Cl)cc23)cnc1N[C@H]1CCOC1', 'Kd', '0.1 to 100 nM'),
  ('Cc1cnnc(C)c1[C@@H](C)Oc1ccc2[nH]nc(-c3cc(C#N)cc(N4CC5(CN(C)C5)C4)c3)c2c1', 'Kd', '250 to 1000 nM'),
  ('CCN1CCC(Oc2c(C)cc(-c3n[nH]c4ccc(O[C@H](C)c5c(C)cnnc5C)cc34)cc2C#N)CC1', 'Kd', '0.1 to 100 nM');

For each listed entry, give its Kd.
1. Cc1cc2[nH]nc(-c3cnc(O[C@@H]4CCOC4)c(C#N)c3)c2cc1O[C@H](C)c1c(Cl)cncc1Cl
2. COc1cc(OC(F)(F)F)cc(-c2n[nH]c3ccc(O[C@H](C)c4c(C)cnnc4C)cc23)c1
3. CCN1CCC2(CC1)OCc1cc(-c3n[nH]c4ccc(O[C@H](C)c5c(Cl)cncc5Cl)cc34)ccc1O2
4. COc1cc2[nH]nc(-c3cc(C#N)cc(C4CC4)c3)c2cc1O[C@H](C)c1c(C)cnnc1C
5. Cc1ncc(Cl)c([C@@H](C)Oc2ccc3[nH]nc(-c4ccc(N[C@@H]5CCOC5)nc4)c3c2)c1Cl
6. COc1cc2[nH]nc(-c3cnc(O[C@@H]4CCOC4)c(C#N)c3)c2cc1O[C@H](C)c1c(Cl)cncc1Cl

Key:
1: 0.1 to 100 nM; 2: > 1000 nM; 3: 0.1 to 100 nM; 4: 250 to 1000 nM; 5: 0.1 to 100 nM; 6: 0.1 to 100 nM

====

# system-tested: FGFR1 (Homo sapiens, UniProt P11362)
# Construct: made in house; host or cells: E. coli derived from BL21, infected with T7 phage
# assay-procedure: Kinase binding assay (kinase-tagged T7 phage, qPCR), Kd
# measurement-conditions: read-out: FGFR1 (Kd nM)
value-type: Kd

Past entries and their recorded results:
INSERT INTO measurements (molecular_string, system_tested, result) VALUES
  ('CCOc1cc(OC)cc(-c2n[nH]c3ccc(O[C@@H](C)c4c(C)cnnc4C)cc23)c1', 'FGFR1 (Homo sapiens, UniProt P11362)', '> 1000 nM'),
  ('C[C@@H](Oc1ccc2[nH]nc(-c3ccc(N)nc3)c2c1)c1c(Cl)cncc1Cl', 'FGFR1 (Homo sapiens, UniProt P11362)', '0.1 to 100 nM'),
  ('Cc1cccc(C(=O)N2CCOc3ncc(-c4n[nH]c5ccc(O[C@H](C)c6c(Cl)cncc6Cl)cc45)cc32)n1', 'FGFR1 (Homo sapiens, UniProt P11362)', '> 1000 nM');

For each listed entry, give its Kd.
1. Cc1cnnc(C)c1[C@@H](C)Oc1ccc2[nH]nc(-c3cc(C#N)cc(N4CCOCC4)c3)c2c1
2. C[C@@H](Oc1ccc2[nH]nc(-c3ccc(NC(=O)C4CC4)nc3)c2c1)c1c(Cl)cncc1Cl
3. Cc1cnnc(C)c1[C@@H](C)Oc1ccc2[nH]nc(-c3cc(C#N)cc(OCC4CC4)c3)c2c1
4. CCN1CCC2(CC1)OCc1cc(-c3n[nH]c4ccc(O[C@H](C)c5c(C)cnnc5C)cc34)ccc1O2

Key:
> 1000 nM
0.1 to 100 nM
> 1000 nM
0.1 to 100 nM

For each listed entry, give its Kd.
1. COc1cc(OC)cc(-c2n[nH]c3ccc(O[C@@H](C)c4c(C)cnnc4C)cc23)c1
2. CCN1CCC2(CC1)CC(=O)c1cc(-c3n[nH]c4ccc(O[C@H](C)c5c(Cl)cncc5Cl)cc34)ccc1O2
3. COc1cc(-c2n[nH]c3ccc(O[C@H](C)c4c(Cl)cnc(F)c4Cl)cc23)cc2c1OC1(CCN(C(C)C)CC1)OC2
4. Cc1nccc(C(=O)N2CCOc3ncc(-c4n[nH]c5ccc(O[C@H](C)c6c(Cl)cncc6Cl)cc45)cc32)n1

Key:
0.1 to 100 nM
0.1 to 100 nM
250 to 1000 nM
250 to 1000 nM

====

# system-tested: FGFR2 (Homo sapiens, UniProt P21802)
# Construct: made in house; host or cells: E. coli derived from BL21, infected with T7 phage
# Sequence (P21802 22-821): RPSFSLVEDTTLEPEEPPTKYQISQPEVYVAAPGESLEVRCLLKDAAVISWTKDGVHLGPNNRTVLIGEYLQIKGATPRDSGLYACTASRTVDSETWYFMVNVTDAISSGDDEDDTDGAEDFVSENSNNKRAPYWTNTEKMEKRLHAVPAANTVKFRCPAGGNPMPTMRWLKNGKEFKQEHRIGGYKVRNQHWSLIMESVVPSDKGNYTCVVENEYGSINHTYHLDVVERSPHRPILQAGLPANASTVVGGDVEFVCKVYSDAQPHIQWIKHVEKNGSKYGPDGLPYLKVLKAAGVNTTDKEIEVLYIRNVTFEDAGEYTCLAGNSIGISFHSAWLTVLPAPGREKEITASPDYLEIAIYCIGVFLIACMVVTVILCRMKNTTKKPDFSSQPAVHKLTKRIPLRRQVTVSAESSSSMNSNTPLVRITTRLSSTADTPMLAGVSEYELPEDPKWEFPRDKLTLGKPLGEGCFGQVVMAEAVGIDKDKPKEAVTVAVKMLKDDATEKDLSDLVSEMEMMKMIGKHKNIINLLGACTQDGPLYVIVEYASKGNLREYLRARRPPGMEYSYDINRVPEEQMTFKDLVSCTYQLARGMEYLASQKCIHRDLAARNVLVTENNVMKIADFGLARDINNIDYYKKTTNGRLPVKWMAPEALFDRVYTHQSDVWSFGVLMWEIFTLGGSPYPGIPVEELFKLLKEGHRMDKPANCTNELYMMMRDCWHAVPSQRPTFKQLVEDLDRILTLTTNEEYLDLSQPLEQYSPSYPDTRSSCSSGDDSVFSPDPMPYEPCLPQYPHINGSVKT
# assay-procedure: Kinase binding assay (kinase-tagged T7 phage, qPCR), Kd
# measurement-conditions: read-out: FGFR2 (Kd nM)
Kindly state Kd for each of the entries shown.

INSERT INTO results (molecular_string, value_type, result) VALUES
  ('COc1cc(C#N)cc(-c2n[nH]c3ccc(O[C@H](C)c4c(C)cnnc4C)cc23)c1', 'Kd', '0.1 to 100 nM'),
  ('COc1cc(NCc2cccnc2)cc(-c2n[nH]c3ccc(O[C@H](C)c4c(Cl)cncc4Cl)cc23)c1', 'Kd', '100 to 250 nM'),
  ('Cc1cnnc(C)c1[C@@H](C)Oc1ccc2[nH]nc(-c3cc(C#N)cc(OCC4CC4)c3)c2c1', 'Kd', '> 1000 nM'),
  ('Cc1nccc(C(=O)N2CCOc3ncc(-c4n[nH]c5ccc(O[C@H](C)c6c(Cl)cncc6Cl)cc45)cc32)n1', 'Kd', '250 to 1000 nM'),
  ('Cc1cnnc(C)c1[C@H](C)Oc1ccc2[nH]nc(-c3cc(C#N)cc(N4CCOCC4)c3)c2c1', 'Kd', '> 1000 nM'),
  ('Cc1cnnc(C)c1[C@@H](C)Oc1ccc2[nH]nc(-c3cc(C#N)cc(OC(F)(F)F)c3)c2c1', 'Kd', '> 1000 nM'),
  ('Cc1cc(-c2n[nH]c3ccc(O[C@H](C)c4c(Cl)cnc(C)c4Cl)cc23)cnc1O[C@@H]1CCOC1', 'Kd', '250 to 1000 nM'),
  ('COc1cc(-c2n[nH]c3ccc(O[C@H](C)c4c(C)cnnc4C)cc23)cc(C#N)c1F', 'Kd', '> 1000 nM');

For each listed entry, give its Kd.
1. C[C@@H](Oc1ccc2[nH]nc(-c3cnc(N)c(OC(F)F)c3)c2c1)c1c(Cl)cncc1Cl
2. C[C@@H](Oc1ccc2[nH]nc(-c3cnc(NC4CCOCC4)c(C#N)c3)c2c1)c1c(Cl)cncc1Cl
3. C[C@@H](Oc1ccc2[nH]nc(-c3cnc(N)c(OCC(F)(F)F)c3)c2c1)c1c(Cl)cncc1Cl
4. COc1cc(-c2n[nH]c3cc(OC)c(O[C@H](C)c4c(C)cnnc4C)cc23)cc(C#N)n1
5. COc1cc(-c2n[nH]c3ccc(O[C@H](C)c4c(Cl)cncc4Cl)cc23)cnc1N
6. COc1ncc(-c2n[nH]c3ccc(O[C@H](C)c4c(Cl)cncc4Cl)cc23)cc1NC(=O)N1CCN(C)CC1

Key:
["> 1000 nM", "0.1 to 100 nM", "> 1000 nM", "100 to 250 nM", "250 to 1000 nM", "> 1000 nM"]

Exercise: May I ask what Kd has been recorded for "COc1cc2[nH]nc(-c3cnc(N(C)C)c(C#N)c3)c2cc1O[C@H](C)c1c(Cl)cncc1Cl" ?
Key: 0.1 to 100 nM
